- System: KM12 colon
- test-details: NCI tumour cell line growth inhibition, 48 h
readout: TGI

Past entries and their recorded results:
# record-smiles, TGI
data = [
    ("Oc1ccc(C[C@@H]2CN[C@H](Cc3ccc(O)c(Br)c3)CN2)cc1", "> 100 µM"),
    ("CC(=O)[O-].O=[N+]([O-])c1ccc([O-])c(C=NCCN=Cc2cc([N+](=O)[O-])ccc2[O-])c1.[Mn+3]", "> 100 µM"),
    ("COc1cccc(Nc2nc3c([nH]2)c(=O)n(C)c(=O)n3C)c1", "> 10 µM"),
    ("COc1cc(/C=C2\\C(=O)Nc3ccc(Br)cc32)cc(OC)c1OC", "> 92.4 µM"),
]

Please turn your attention to the following entry.
Could you tell me which TGI is on file for Cn1c2ccccc2c2c3c(=O)[nH][nH]c(=O)c3c3c4ccccc4n(C)c3c21 ?
> 100 µM

* * *

Please respond with reported TGI for every item in the list.
- Test system: CCRF-CEM leukemia
- test-details: NCI tumour cell line growth inhibition, 48 h

Record excerpt, results attached:
# compound, TGI
records = [
    ("C/C(N=NC(=S)N1CCCCCC1)=C1\\C=CC=CN1O", "4.93 µM"),
    ("CCCCOP1(=O)C=CC(Cl)=C(C)C1 (stereo unspecified)", "35 µM"),
    ("CC(=O)OC1Oc2cc(C)c(C)cc2-c2oc(=O)c(-c3ccccc3)cc21 (stereo unspecified)", "> 100 µM"),
    ("Cc1ccc2nc(Nc3ccccc3C)c(Nc3ccccc3C)nc2c1", "> 80.6 µM"),
    ("O=c1cccc2n1CC1CNCC2C1 (stereo unspecified)", "> 100 µM"),
]

List the reported TGI of each compound below.
1. Cc1cc(C(=O)Nc2cc(Nc3ncccc3-c3ncnc4nc[nH]c34)ccc2F)cc(C(C)(C)C#N)c1
2. C[C@@H](CCO)OC1OC(COC(=O)C(C)(C)C)C(OC(=O)C(C)(C)C)C(OC(=O)C(C)(C)C)C1OC(=O)C(C)(C)C (stereo partly specified)
3. CC(C)(C)[Si](C)(C)OC1CCOC1(O)c1ccccn1 (stereo unspecified)
4. Cn1c2ccccc2c2c3c(=O)[nH][nH]c(=O)c3c3c4ccccc4n(C)c3c21

1. > 100 µM
2. > 100 µM
3. > 100 µM
4. > 100 µM

List TGI for every entry below, keeping the order given.
1. c1cc2ccc1C1NCCCN1CCN1CCCNC1c1ccc(cc1)C1NCCCN1CCN1CCCNC21 (stereo unspecified)
2. COC(=O)c1ccc2cc(O)ccc2c1

["> 100 µM", "> 100 µM"]

* * *

Field: TGI. Provide a value for each of the molecules that follow.
- System: HCT-15 colon
- test-details: NCI tumour cell line growth inhibition, 48 h
One number for each entry, in µM.

The following molecules have reported results that may help.
# record-smiles, test-target, readout, measurement-unit, reported
data = [
    ("CC(C)NC(=O)OCc1c(COC(=O)NC(C)C)n(C)c2c1ccc1cc(Cl)c(Cl)cc12", "HCT-15 colon", "TGI", "µM", 28.7),
    ("NCCn1c2c(c3ccccc3c1=O)C(=O)c1ccccc1-2", "HCT-15 colon", "TGI", "µM", 2.32),
    ("NCCNc1nc2ccccc2c2c(=O)c3cc(F)cc(Cl)c3sc12", "HCT-15 colon", "TGI", "µM", 2.5),
    ("CC(C)c1ccc2c(c1)c(SC(C)(C)C)c(CC(C)(C)C(=O)O)n2Cc1ccc(Cl)cc1", "HCT-15 colon", "TGI", "µM", 23.4),
]

Now look at this entry.
Any idea what TGI was measured for Cc1ccc2nc(Nc3ccccc3C)c(Nc3ccccc3C)nc2c1 ?
58.7

* * *

Exercise: for every item that follows, state its recorded TGI.
- Tested on: UACC-257 melanoma
- test-details: NCI tumour cell line growth inhibition, 48 h

# compound, reported
rows = [
    ("CCc1nc2c([nH]1)C(=O)c1ccccc1C2=O", "78 µM"),
    ("OCCN(CCO)c1ncnc2c1sc(=S)n2-c1ccccc1", "> 100 µM"),
    ("Cc1cc(C(=O)Nc2cc(Nc3ncccc3-c3ncnc4nc[nH]c34)ccc2F)cc(C(C)(C)C#N)c1", "> 100 µM"),
    ("CCOC(=O)c1cc(C(=O)O)c(=O)n2c1[nH]c1ccccc12", "> 100 µM"),
    ("NCCNc1nc2ccccc2c2c(=O)c3cc(F)cc(Cl)c3sc12", "3.72 µM"),
]

// for each compound below, give its TGI
1. C=CCN(N=O)C(=O)ON1C(=O)CCC1=O
2. O=c1[nH]nc(-c2ccc([N+](=O)[O-])cc2)[nH]1
3. N#Cc1ccnc(C(=O)N2CCCC2C(=O)O)c1 (centres undefined)
4. CCC1(Cl)C(=O)NC(=O)N(C2CC(O)C(CO)O2)C1N=[N+]=[N-] (centres undefined)
5. N=C(N)SCC(=O)O
6. O=C(O)CCSc1ncnc2nc[nH]c12
7. COc1cc2c3c(c1OC)/C(=N/OS(=O)(=O)c1ccc(C)cc1)CC3N(S(=O)(=O)c1ccc(C)cc1)CC2 (centres undefined)

1. > 100 µM
2. > 100 µM
3. > 100 µM
4. > 100 µM
5. > 100 µM
6. > 100 µM
7. > 100 µM

Hi team, please reply with TGI for each item in this list.
1. COc1ccc2c(c1)c(-c1cc(-c3cn(C)c4ccc(OC)cc34)[nH]n1)cn2C
2. CCOP(=O)(CC1OC(CO)C(O)C1O)OCC (centres undefined)

["> 100 µM", "> 100 µM"]

* * *

- Tested on: MCF7 breast
- test-details: NCI tumour cell line growth inhibition, 48 h
readout: TGI (µM)
Numbers only, in µM.

# record-smiles, test-target, readout, reported
data = [
    ("C/C(=C\\CO)CC[C@@H]1[C@@]2(C)CCCC(C)(C)[C@@H]2CC[C@@]1(C)O", "MCF7 breast", "TGI", 30.8),
    ("O=C(Nc1nc2ccc(F)cc2s1)c1cccnc1Nc1ccc(Cl)cc1Cl", "MCF7 breast", "TGI", 13),
]

The record that follows has no TGI shown yet.
Fill in the blank: the reported TGI of CC(=O)c1c(Nc2ccc(F)c(F)c2F)[nH]c2c(F)cc(F)cc2c1=O is ____.
13.5

* * *

- Tested on: BT-549 breast
- test-details: NCI tumour cell line growth inhibition, 48 h
For each entry below, report its TGI value.

// for each compound in input: emit TGI
1. O=C(O)Cn1c[n+](NC(=O)Cc2ccccc2)cn1
2. COc1ccccc1Cn1c2c(c3cc(O)ccc31)C(=O)c1ccccc1C2=O
3. O=C(O)C(O)c1ccc(F)cc1 (stereo not drawn)
4. Cc1cc(C(=O)Nc2cc(Nc3ncccc3-c3ncnc4nc[nH]c34)ccc2F)cc(C(C)(C)C#N)c1
5. Fc1ccc(-c2cc(-c3cn[nH]c3-c3ccccn3)ccn2)cc1
6. CCCCCc1cc(CCCC)sc1-c1ccco1

["> 10 µM", "> 100 µM", "> 100 µM", "> 100 µM", "> 25 µM", "> 100 µM"]

Kindly give each listed record's TGI.
1. C/C(N=NC(=S)N1CCCCCC1)=C1\C=CC=CN1O
2. C=C[C@@]1(C)CC(=O)[C@]2(O)[C@@]3(C)[C@@H](O)CCC(C)(C)[C@@H]3[C@H](O)[C@@H](OC(C)=O)[C@@]2(C)O1

["> 100 µM", "> 100 µM"]

* * *

- System: UACC-62 melanoma
- test-details: NCI tumour cell line growth inhibition, 48 h
readout: TGI

Here is how some compounds turned out for TGI.
# compound, TGI
records = [
    ("CC(=O)Nc1ccc2c(c1)nc1c3ccccc3ccn21", "> 100 µM"),
    ("CC(=O)Oc1ccc2c(c1)O/C(=C\\c1ccc(O)cc1)C2=O", "> 100 µM"),
    ("OC(CCN1CCN(CCOC(c2ccc(F)cc2)c2ccc(F)cc2)CC1)c1ccc(Br)cc1 (configuration not stated)", "12.7 µM"),
    ("O=C(O)Cn1c[n+](NC(=O)Cc2ccccc2)cn1", "> 10 µM"),
]

Parameter requested: TGI. Apply to each item below.
1. CC(C)c1ccc2c(c1)c(SC(C)(C)C)c(CC(C)(C)C(=O)O)n2Cc1ccc(Cl)cc1
2. CC1(C)Oc2ccccc2N2O[C@@H]3C(=O)N(c4ccccc4)C(=O)[C@@H]3C21c1ccccc1 (some centres not stated)
3. COc1ccc2nc3cc(Cl)ccc3c(Nc3ccc(O)c(CN4CCCC4)c3)c2c1

["24 µM", "87.8 µM", "3.51 µM"]

* * *

- Tested on: SW-620 colon
- test-details: NCI tumour cell line growth inhibition, 48 h
I'd appreciate it if you could supply TGI values for the items below.

Below, 3 compounds whose answers are already recorded.
# compound, TGI
records = [
    ("CC(=O)N=S(NC(=O)c1ccc(C)cc1)C(Cl)(Cl)Cl (stereo unspecified)", "36.3 µM"),
    ("CCC1(c2ccc(OC)c(OC)c2)CCN2C(=O)C(O)CC21 (stereo unspecified)", "> 100 µM"),
    ("NC1(C(=O)O)CSSC1", "> 100 µM"),
]

Would you mind giving TGI for every compound in the list below?
1. COc1cccc(C2CC(=O)Nc3cc4c(cc32)CCC4)c1OC (stereo unspecified)
2. O=c1/c(=C/c2ccc3c(c2)OCO3)sc2nnc(Cc3ccccc3)n12
3. C#CCn1cc(C=C2C(=O)NC(=S)NC2=O)c2cc(Cl)ccc21

["> 46.2 µM", "> 100 µM", "3.45 µM"]

Entry source: PubChem BioAssay (NCI)
